Data provenance: patent US20250114463A1

Quick reference: in vitro Activity Compared to Native Peptide (%), vs Glucagon of the listed items.
- target.entity: human GCG receptor (human, UniProt P47871 26-477)
- Sequence (P47871 26-477): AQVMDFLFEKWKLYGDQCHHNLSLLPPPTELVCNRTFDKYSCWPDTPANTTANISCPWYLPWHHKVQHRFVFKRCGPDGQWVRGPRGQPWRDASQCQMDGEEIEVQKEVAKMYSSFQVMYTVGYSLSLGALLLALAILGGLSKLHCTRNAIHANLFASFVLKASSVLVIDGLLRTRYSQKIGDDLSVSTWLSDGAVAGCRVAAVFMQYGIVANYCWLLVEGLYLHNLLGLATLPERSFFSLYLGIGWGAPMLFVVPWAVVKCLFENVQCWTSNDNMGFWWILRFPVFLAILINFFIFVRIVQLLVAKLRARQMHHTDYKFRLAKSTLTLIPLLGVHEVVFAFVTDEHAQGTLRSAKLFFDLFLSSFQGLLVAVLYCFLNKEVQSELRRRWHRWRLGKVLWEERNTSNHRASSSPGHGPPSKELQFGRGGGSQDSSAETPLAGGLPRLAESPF
- assay.text: cell-based or functional assay
Bridges are numbered along the chain shown (N, C = ends). Where no end group is shown, it is not given here. [ ]: non-standard residue; d: D form. The star is where a group is joined. Acetyl(2-(4-imidazolyl)) = O=C(Cc1c[nH]cn1)*; Aib = CC(C)(N)C(=O)O
parameter.measured: in vitro Activity Compared to Native Peptide (%), vs Glucagon

binder: Y[Aib]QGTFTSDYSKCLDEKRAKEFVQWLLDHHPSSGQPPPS-NH2 (bridge 16-20) [triple agonist of SEQ ID NO: 22]
censoring.sign: =
readout.number: 140
//
binder: [Acetyl(2-(4-imidazolyl))][Aib]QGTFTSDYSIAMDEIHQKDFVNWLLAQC (bridge 16-20; not fully specified (C-terminus)) [triple agonist of SEQ ID NO: 85]
censoring.sign: <
readout.number: 0.1
//
binder: [Acetyl(2-(4-imidazolyl))][Aib]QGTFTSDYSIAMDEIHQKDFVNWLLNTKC (bridge 16-20; not fully specified (C-terminus)) [triple agonist of SEQ ID NO: 94]
censoring.sign: <
readout.number: 0.1
//
binder: H[Aib]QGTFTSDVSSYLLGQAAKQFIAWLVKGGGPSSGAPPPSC-NH2 [triple agonist of SEQ ID NO: 3]
censoring.sign: <
readout.number: 0.1
//
binder: Y[Aib]QGTFTSDYSKYLDECRAKDFVQWLLDHHPSSGQPPPS (bridge 16-20; not fully specified (C-terminus)) [triple agonist of SEQ ID NO: 66]
censoring.sign: =
readout.number: 172
//
binder: [Acetyl(2-(4-imidazolyl))][Aib]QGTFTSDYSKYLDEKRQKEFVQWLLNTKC (bridge 16-20; not fully specified (C-terminus)) [triple agonist of SEQ ID NO: 88]
censoring.sign: =
readout.number: 0.3
//
binder: Y[Aib]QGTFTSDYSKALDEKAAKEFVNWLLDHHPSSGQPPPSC (bridge 16-20; not fully specified (C-terminus)) [triple agonist of SEQ ID NO: 98]
censoring.sign: =
readout.number: 8.2
//
binder: [Acetyl(2-(4-imidazolyl))]GQGTFTSDLSKQMDSEAQQLFIEWLKNGGPSSGAPPPSHG-NH2 [triple agonist of SEQ ID NO: 16]
censoring.sign: <
readout.number: 0.1
//
binder: H[Aib]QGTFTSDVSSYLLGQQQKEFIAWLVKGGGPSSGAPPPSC-NH2 [triple agonist of SEQ ID NO: 5]
censoring.sign: <
readout.number: 0.1
//
binder: H[Aib]QGTFTSDYSKYLDEKAAKEFVQWLLNTC (bridge 16-20; not fully specified (C-terminus)) [triple agonist of SEQ ID NO: 29]
censoring.sign: =
readout.number: 6
//
binder: HGQGTFTSDCSKYMDGQAAQDFVAWLLAGGPSSGAPPPS (not fully specified (C-terminus)) [triple agonist of SEQ ID NO: 45]
censoring.sign: <
readout.number: 0.1
//
binder: H[Aib]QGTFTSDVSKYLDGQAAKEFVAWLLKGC (not fully specified (C-terminus)) [triple agonist of SEQ ID NO: 7]
censoring.sign: <
readout.number: 0.1
//
binder: [Acetyl(2-(4-imidazolyl))][Aib]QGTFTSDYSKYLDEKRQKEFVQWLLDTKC (bridge 16-20; not fully specified (C-terminus)) [triple agonist of SEQ ID NO: 89]
censoring.sign: =
readout.number: 0.7
//
binder: H[Aib]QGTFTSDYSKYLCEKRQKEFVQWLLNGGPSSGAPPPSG (bridge 16-20; not fully specified (C-terminus)) [triple agonist of SEQ ID NO: 36]
censoring.sign: =
readout.number: 0.39
//
binder: H[Aib]QGTFTSDVSKYLDGQAAQEFVAWLLAGGGPSSGAPPPSC-NH2 [triple agonist of SEQ ID NO: 10]
censoring.sign: <
readout.number: 0.1
